system: forty-four human cancer cell lines; experiment: Cell proliferation assay (ATPlite, 72 hours) in the 44 cell line Oncolines panel; type: cell-based; settings: Homo sapiens; cell line AN3 CA; read-out: cell panel IC50, AN3 CA
A collection of compounds and their measured pIC50
Here pIC50 is given on a logarithmic scale as minus log10 of the concentration in mol/L.

{"Chemical string": "CC(=O)Nc1cccc(-n2c(=O)n(C3CC3)c(=O)c3c(Nc4ccc(I)cc4F)n(C)c(=O)c(C)c32)c1", "Experimental system": "forty-four human cancer cell lines", "pIC50": 4.87}

I am curious: what pIC50 value has been reported for `CNC(=O)c1cc(Oc2ccc(NC(=O)Nc3ccc(Cl)c(C(F)(F)F)c3)c(F)c2)ccn1` ?
5.23

* * *

Each entry below lists one item and its recorded IC50 value.
test system: forty-four human cancer cell lines; assay: Cell proliferation assay (ATPlite, 72 hours) in the 44 cell line Oncolines panel; assay type: cell-based; settings: Homo sapiens, A204, read-out: cell panel IC50, A-204

{"Compound": "C[C@@H](Oc1cc(-c2cnn(C3CCNCC3)c2)cnc1N)c1c(Cl)ccc(F)c1Cl [crizotinib]", "Quantity measured": "IC50", "Result": "2.46 µM"}

Here is the next item to consider.
Give the measured IC50 of CS(=O)(=O)CCNCc1ccc(-c2ccc3ncnc(Nc4ccc(OCc5cccc(F)c5)c(Cl)c4)c3c2)o1 [lapatinib] .
10.6 µM

* * *

system: forty-four human cancer cell lines; test: Cell proliferation assay (ATPlite, 72 hours) in the 44 cell line Oncolines panel; type: cell-based; settings: Homo sapiens; cell line 786-0; read-out: cell panel IC50, 786-0
Quantity measured: IC50 (µM)
Give the value in µM but do not write µM after it.

{"Compound": "CNC(=O)c1cc(Oc2ccc(NC(=O)Nc3ccc(Cl)c(C(F)(F)F)c3)c(F)c2)ccn1 [regorafenib]", "Unit of measurement": "µM", "IC50": 7.29}

What value of IC50 on forty-four human cancer cell lines does CC(=O)Nc1cccc(-n2c(=O)n(C3CC3)c(=O)c3c(Nc4ccc(I)cc4F)n(C)c(=O)c(C)c32)c1 [trametinib] have?
25.8

* * *

The molecules listed here are annotated with their %-inhibition, BRAF(V600E).
target: panel of more than 300 wild-type and mutant kinases (313 kinase panel) (Homo sapiens, UniProt P15056, V600E); assay: Kinase profiling in a biochemical assay panel (mobility shift assays and ELISA), %-inhibition at 1 μM; selectivity entropy; conditions: kinase BRAF(V600E); 1 μM compound
Sequence (P15056 whole entry V600E): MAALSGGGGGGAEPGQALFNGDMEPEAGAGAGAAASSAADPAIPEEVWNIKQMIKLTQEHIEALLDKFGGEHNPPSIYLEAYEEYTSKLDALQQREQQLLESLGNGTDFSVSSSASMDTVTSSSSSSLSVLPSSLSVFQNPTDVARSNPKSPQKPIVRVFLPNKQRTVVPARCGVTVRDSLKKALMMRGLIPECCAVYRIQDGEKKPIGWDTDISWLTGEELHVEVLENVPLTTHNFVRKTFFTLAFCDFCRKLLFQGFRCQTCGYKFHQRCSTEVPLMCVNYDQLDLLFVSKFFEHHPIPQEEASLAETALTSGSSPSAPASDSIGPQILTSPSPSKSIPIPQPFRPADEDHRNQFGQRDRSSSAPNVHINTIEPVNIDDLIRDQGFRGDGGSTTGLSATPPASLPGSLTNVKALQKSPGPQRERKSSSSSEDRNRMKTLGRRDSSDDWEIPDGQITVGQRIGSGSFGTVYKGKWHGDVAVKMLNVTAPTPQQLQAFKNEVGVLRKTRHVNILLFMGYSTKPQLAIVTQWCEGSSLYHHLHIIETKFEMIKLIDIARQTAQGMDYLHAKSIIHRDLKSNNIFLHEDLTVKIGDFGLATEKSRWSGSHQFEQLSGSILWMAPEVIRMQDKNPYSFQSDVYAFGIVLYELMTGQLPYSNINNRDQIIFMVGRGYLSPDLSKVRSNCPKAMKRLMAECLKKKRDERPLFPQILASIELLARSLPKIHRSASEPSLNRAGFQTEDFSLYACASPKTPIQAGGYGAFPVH
Reply with just the number (in %).

Known %-inhibition, BRAF(V600E) results, listed for orientation:
{"Molecule": "COc1cc2nccc(Oc3ccc(NC(=O)C4(C(=O)Nc5ccc(F)cc5)CC4)cc3)c2cc1OC [cabozantinib]", "Number": 37}
{"Molecule": "O=S(=O)(c1cccc2cnccc12)N1CCCNCC1", "Number": 3.36}
{"Molecule": "N#CC[C@H](C1CCCC1)n1cc(-c2ncnc3[nH]ccc23)cn1", "Number": 6}
{"Molecule": "CO[C@H]1C[C@@H]2CC[C@@H](C)[C@@](O)(O2)C(=O)C(=O)N2CCCC[C@H]2C(=O)O[C@H]([C@H](C)C[C@@H]2CC[C@@H](OC(=O)C(C)(CO)CO)[C@H](OC)C2)CC(=O)[C@H](C)/C=C(\\C)[C@@H](O)[C@@H](OC)C(=O)[C@H](C)C[C@H](C)/C=C/C=C/C=C/1C", "Number": -0.864}
{"Molecule": "COc1cc2c(Nc3ccc(Br)cc3F)ncnc2cc1OCC1CCN(C)CC1", "Number": 18}
{"Molecule": "CC(=O)Nc1cccc(-n2c(=O)n(C3CC3)c(=O)c3c(Nc4ccc(I)cc4F)n(C)c(=O)c(C)c32)c1", "Number": 37}
{"Molecule": "Cc1ccc(C(=O)Nc2ccc(CN3CCN(C)CC3)c(C(F)(F)F)c2)cc1C#Cc1cnc2cccnn12", "Number": 84}
{"Molecule": "C[C@@H](Oc1cc(-c2cnn(C3CCNCC3)c2)cnc1N)c1c(Cl)ccc(F)c1Cl", "Number": 10}

As a next step, examine the molecule that follows.
Please look up its %-inhibition, BRAF(V600E): `CO[C@H]1C[C@@H]2CC[C@@H](C)[C@@](O)(O2)C(=O)C(=O)N2CCCC[C@H]2C(=O)O[C@H]([C@H](C)C[C@@H]2CC[C@@H](OCCO)[C@H](OC)C2)CC(=O)[C@H](C)/C=C(\C)[C@@H](O)[C@@H](OC)C(=O)[C@H](C)C[C@H](C)/C=C/C=C/C=C/1C`
2

* * *

target: panel of more than 300 wild-type and mutant kinases (313 kinase panel) (Homo sapiens, UniProt P78368); assay: Kinase profiling in a biochemical assay panel (mobility shift assays and ELISA), %-inhibition at 1 μM; selectivity entropy; details: kinase CK1γ2; 1 μM compound
Quantity measured: %-inhibition, CK1γ2 (%)
Give a bare numeral; the unit % is implied.

Field: example entries. Status: answers known.
{"Chemical string": "CC(=O)Nc1cccc(-n2c(=O)n(C3CC3)c(=O)c3c(Nc4ccc(I)cc4F)n(C)c(=O)c(C)c32)c1", "%-inhibition, CK1γ2 / %": -2.15}
{"Chemical string": "Cc1cn(-c2cc(NC(=O)c3ccc(C)c(Nc4nccc(-c5cccnc5)n4)c3)cc(C(F)(F)F)c2)cn1", "%-inhibition, CK1γ2 / %": 5.57}
{"Chemical string": "COc1cc(Nc2c(C#N)cnc3cc(OCCCN4CCN(C)CC4)c(OC)cc23)c(Cl)cc1Cl", "%-inhibition, CK1γ2 / %": -2.3}

Entry `COc1cc2c(Nc3ccc(Br)cc3F)ncnc2cc1OCC1CCN(C)CC1` has what %-inhibition, CK1γ2?
-2

* * *

target: panel of more than 300 wild-type and mutant kinases (313 kinase panel) (Homo sapiens, UniProt Q96PY6); assay: Kinase profiling in a biochemical assay panel (mobility shift assays and ELISA), %-inhibition at 1 μM; selectivity entropy; conditions: kinase NEK1; 1 μM
Sequence (Q96PY6 whole entry, change not shown): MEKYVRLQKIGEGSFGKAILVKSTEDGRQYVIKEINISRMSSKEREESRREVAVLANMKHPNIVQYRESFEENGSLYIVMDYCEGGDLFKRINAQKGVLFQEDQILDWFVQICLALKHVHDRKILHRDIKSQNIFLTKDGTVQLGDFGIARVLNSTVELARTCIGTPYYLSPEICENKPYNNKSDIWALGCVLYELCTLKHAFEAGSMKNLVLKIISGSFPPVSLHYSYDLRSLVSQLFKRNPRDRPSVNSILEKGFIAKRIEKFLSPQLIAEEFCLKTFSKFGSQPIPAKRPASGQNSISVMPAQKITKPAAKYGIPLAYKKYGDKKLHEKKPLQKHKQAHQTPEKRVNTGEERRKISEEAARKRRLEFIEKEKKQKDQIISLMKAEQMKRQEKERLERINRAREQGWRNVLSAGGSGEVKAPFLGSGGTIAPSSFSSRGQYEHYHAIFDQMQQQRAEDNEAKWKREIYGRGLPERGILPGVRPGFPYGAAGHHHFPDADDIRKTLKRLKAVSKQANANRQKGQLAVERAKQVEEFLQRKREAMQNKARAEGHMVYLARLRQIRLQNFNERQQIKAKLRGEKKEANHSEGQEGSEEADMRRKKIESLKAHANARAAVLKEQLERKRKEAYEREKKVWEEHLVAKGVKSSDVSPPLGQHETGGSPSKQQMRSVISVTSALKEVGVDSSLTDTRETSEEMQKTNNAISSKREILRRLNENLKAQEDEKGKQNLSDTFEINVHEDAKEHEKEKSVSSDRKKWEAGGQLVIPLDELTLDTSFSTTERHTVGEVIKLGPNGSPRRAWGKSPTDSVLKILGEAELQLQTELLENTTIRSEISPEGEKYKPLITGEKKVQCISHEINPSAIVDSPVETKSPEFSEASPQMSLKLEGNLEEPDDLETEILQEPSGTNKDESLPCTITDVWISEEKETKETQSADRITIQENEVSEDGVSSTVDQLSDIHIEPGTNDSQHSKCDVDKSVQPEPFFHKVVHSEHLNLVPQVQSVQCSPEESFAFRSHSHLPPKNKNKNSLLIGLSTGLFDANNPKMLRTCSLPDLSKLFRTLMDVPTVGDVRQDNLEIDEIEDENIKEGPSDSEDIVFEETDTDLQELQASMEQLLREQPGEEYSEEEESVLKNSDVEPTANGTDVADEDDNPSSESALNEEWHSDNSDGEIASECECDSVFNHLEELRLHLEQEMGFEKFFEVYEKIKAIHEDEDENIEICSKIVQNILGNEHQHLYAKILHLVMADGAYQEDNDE
Below, each entry is listed with its recorded %-inhibition of NEK1.
Please provide the amount together with its unit, number first.

Consider the compound `CC(=O)Nc1cccc(-n2c(=O)n(C3CC3)c(=O)c3c(Nc4ccc(I)cc4F)n(C)c(=O)c(C)c32)c1` and give its measured %-inhibition of NEK1.
-5%

Item: `Cc1ccc(C(=O)Nc2ccc(CN3CCN(C)CC3)c(C(F)(F)F)c2)cc1C#Cc1cnc2cccnn12`
78%

Query `N#CC[C@H](C1CCCC1)n1cc(-c2ncnc3[nH]ccc23)cn1` next
-4%

`CC(C)(C)c1nc(-c2cccc(NS(=O)(=O)c3c(F)cccc3F)c2F)c(-c2ccnc(N)n2)s1` ?
24%

Moving on to `O=S(=O)(c1cccc2cnccc12)N1CCCNCC1`
-6.36%

Ok, now `CCCS(=O)(=O)Nc1ccc(F)c(C(=O)c2c[nH]c3ncc(-c4ccc(Cl)cc4)cc23)c1F`
-2.74%

Ok, now `CO[C@H]1C[C@@H]2CC[C@@H](C)[C@@](O)(O2)C(=O)C(=O)N2CCCC[C@H]2C(=O)O[C@H]([C@H](C)C[C@@H]2CC[C@@H](OC(=O)C(C)(CO)CO)[C@H](OC)C2)CC(=O)[C@H](C)/C=C(\C)[C@@H](O)[C@@H](OC)C(=O)[C@H](C)C[C@H](C)/C=C/C=C/C=C/1C`
-8%

Please do the same for `CNC(=O)c1cc(Oc2ccc(NC(=O)Nc3ccc(Cl)c(C(F)(F)F)c3)c(F)c2)ccn1` as well.
-7%

Field entry: `Cc1cn(-c2cc(NC(=O)c3ccc(C)c(Nc4nccc(-c5cccnc5)n4)c3)cc(C(F)(F)F)c2)cn1`
-23%

Record: `Cc1ccc(Nc2nccc(N(C)c3ccc4c(C)n(C)nc4c3)n2)cc1S(N)(=O)=O`
2.41%

What do you get for `COc1cc2c(Nc3ccc(Br)cc3F)ncnc2cc1OCC1CCN(C)CC1` ?
-8%

Cool, now `CO[C@H]1C[C@@H]2CC[C@@H](C)[C@@](O)(O2)C(=O)C(=O)N2CCCC[C@H]2C(=O)O[C@H]([C@H](C)C[C@@H]2CC[C@@H](OCCO)[C@H](OC)C2)CC(=O)[C@H](C)/C=C(\C)[C@@H](O)[C@@H](OC)C(=O)[C@H](C)C[C@H](C)/C=C/C=C/C=C/1C`
-7%

Next compound up: `C[C@@H](Oc1cc(-c2cnn(C3CCNCC3)c2)cnc1N)c1c(Cl)ccc(F)c1Cl`
2.24%

Follow-up item: COc1cc2nccc(Oc3ccc(NC(=O)C4(C(=O)Nc5ccc(F)cc5)CC4)cc3)c2cc1OC [cabozantinib]
-4.23%

* * *

test system: forty-four human cancer cell lines; experiment: Cell proliferation assay (ATPlite, 72 hours) in the 44 cell line Oncolines panel; format: cell-based; details: Homo sapiens, NCI-H460, read-out: cell panel IC50, NCI-H460
Quantity measured: pIC50
Please note pIC50 is a logarithmic value: minus log10 of concentration in mol/L. Answer with that number alone.

Below, 4 compounds whose answers are already recorded.
{"Compound": "CN(C)C/C=C/C(=O)Nc1cc2c(Nc3ccc(F)c(Cl)c3)ncnc2cc1O[C@H]1CCOC1 [afatinib]", "Number": 5.58}
{"Compound": "C[C@@H](Oc1cc(-c2cnn(C3CCNCC3)c2)cnc1N)c1c(Cl)ccc(F)c1Cl [crizotinib]", "Number": 5.94}
{"Compound": "Cc1ccc(C(=O)Nc2ccc(CN3CCN(C)CC3)c(C(F)(F)F)c2)cc1C#Cc1cnc2cccnn12 [ponatinib]", "Number": 5.84}
{"Compound": "Cc1cn(-c2cc(NC(=O)c3ccc(C)c(Nc4nccc(-c5cccnc5)n4)c3)cc(C(F)(F)F)c2)cn1 [nilotinib]", "Number": 5.19}

// switching to the query compound
Item CS(=O)(=O)CCNCc1ccc(-c2ccc3ncnc(Nc4ccc(OCc5cccc(F)c5)c(Cl)c4)c3c2)o1 [lapatinib] has what recorded pIC50?
4.79

FYI, the data here is from paper PMC3961306.
